Tested on: MDA-MB-468 breast
Protocol details: NCI-60 one-dose screen, 48 h (100 = growth as untreated, 0 = no growth, -100 = all killed)
Assay conditions: 10 µM unless noted
Method: Growth inhibition of the MDA-MB-468 human Breast tumor cell line is measured as a screen for anti-cancer activity. Cells are grown in 96 well plates and exposed to the test compound for 48 hours. Compounds are tested at a single concentration, which is 10^-5 M for most compounds. The reported endpoint is percent growth (GI% or GIPRCNT), where numbers from 0 - 100% represent growth inhibition, and numbers from -100% - 0 represent cell death. […]
This is part of a sample that, as a whole, favours compounds with a hit. Of some 83,000 tested, about 20% had one in any assay.
growth listing for selected compounds.
Property label: growth (%)

Compound	Tested system	Result value
COc1ccc(C2=C(c3cn(C)c4ccccc34)C(=O)OC2)cc1OC	MDA-MB-468 breast	1.23
C=C(C)[C@@H]1CC[C@]2(CO)CC[C@]3(C)[C@H](CC[C@@H]4[C@@]5(C)C=C(C#N)C(=O)C(C)(C)[C@@H]5CC[C@]43C)[C@@H]12	MDA-MB-468 breast	8.08
CCCCCCCC/C=C\CCCCCCCCOc1cccc(CC(=O)NCC[N+]2(C)CCOCC2)c1	MDA-MB-468 breast	86
C#CC(F)(F)[C@]1(O)CC[C@H]2[C@@H]3CCC4=CC(=O)CCC4=C3[C@@H](c3ccc(C(C)=O)cc3)C[C@@]21C	MDA-MB-468 breast	81.3
O=C1C2=C(C(=O)c3ccccc31)C(O)(S(=O)(=O)O)C(O)(S(=O)(=O)O)C1N=CC=CC21 (stereo not given)	MDA-MB-468 breast	18.4
COc1ccc(OCC(=O)Nc2ccc(-c3nc4ccccc4s3)cc2C)cc1	MDA-MB-468 breast	7.38
CCS(=O)(=O)N1CCN(c2ccc(Nc3ncc(C(N)=O)c(NC4CC4)n3)cc2)CC1	MDA-MB-468 breast	42.2
O=C1NC(=O)C2C(=O)NC(=O)C1C21CCc2ccccc21 (stereo not given)	MDA-MB-468 breast	101
CCOCC(=O)C(C#N)c1ccc(Cl)c(Cl)c1 (stereo not given)	MDA-MB-468 breast	90.9
CCOC(=O)c1ccc(Nc2sc(C(=O)c3ccc(Br)cc3)c(N)c2C#N)cc1	MDA-MB-468 breast	1.55
Cc1ccc(Cc2ccc(C)cc2)cc1	MDA-MB-468 breast	96.8
C=C(C)[C@@H]1C[C@H](O)Cc2cc(F)ccc2N1	MDA-MB-468 breast	89.3
CCC(c1cccc(Br)c1)C(C(=O)O)c1ccc(OC)cc1 (stereo not given)	MDA-MB-468 breast	102
Cc1ccc(/C=C2/C(=O)N(C)c3ccc(S(=O)(=O)Nc4ccc(C(C)(C)C)cc4)cc32)s1	MDA-MB-468 breast	63.1
Cc1ccc2c(c1)C(C)Cc1c(ncnc1-n1cnc3cc(C)ccc31)N2C (stereo not given)	MDA-MB-468 breast	9.76
COc1cccc(-c2nn(-c3ccccc3)cc2-c2ccnc(N3CCOCC3)c2)c1	MDA-MB-468 breast	69.2
CC(C)(C)c1[nH]nc2c1C(c1cc3ccccc3[nH]c1=O)Nc1cc(C(=O)Nc3ccc(Cl)cc3)ccc1N2 (stereo not given)	MDA-MB-468 breast	-15.9
COc1ccccc1Cn1cc2c(c1-c1ccccc1)CCc1cnoc1-2	MDA-MB-468 breast	10.9
COc1cc(/C=C/C(=O)C(=Cc2ccc(F)c(F)c2)C(=O)/C=C/c2ccc(O)c(OC)c2)ccc1O	MDA-MB-468 breast	25.6
NC(=NCCCOc1ccc(F)cc1)Nc1ccc(I)cc1	MDA-MB-468 breast	27.8
Cc1ccnc(Nc2nc3ccccc3[nH]2)n1	MDA-MB-468 breast	119
NC(=O)CCC(C(=O)O)N1C(=O)c2ccc(O)cc2C1=O (stereo not given)	MDA-MB-468 breast	109
Cc1ccccc1-c1cc(Cc2ccc(F)cc2)c(=O)[nH]n1	MDA-MB-468 breast	109
COc1ccc2cnc(N)c(C#Cc3cc(C(=O)Nc4ccc(CN5CCN(C)CC5)c(C(F)(F)F)c4)cnc3C)c2c1	MDA-MB-468 breast	91.2
CN1C(=S)N(C)C2C1NN=C1SC(c3ccccc3)=CC(=O)N12 (stereo not given)	MDA-MB-468 breast	62.9
O=C(Oc1cccc2ccccc12)Oc1cccc2ccccc12	MDA-MB-468 breast	117
O=C(COc1ccc(Cl)cc1)N1CCN(Cc2ccc3c(c2)OCO3)CC1	MDA-MB-468 breast	98.5
O=C1c2cc3c(cc2-c2c1c1ccc(F)cc1c(=O)n2CCCN1CCOCC1)OCO3	MDA-MB-468 breast	18.5
O=C(Cc1ccc(/C=C/C(=O)c2ncc[nH]2)cc1)Nc1ccc(F)cc1	MDA-MB-468 breast	4.59
CCN1CCN(c2cc(-c3cn[nH]c3-c3cc(C)cc(OC)c3)nc(-c3cccnc3)n2)CC1	MDA-MB-468 breast	54.3

====

Test system: MDA-MB-468 breast
Protocol details: NCI-60 one-dose screen, 48 h
Assay conditions: 10 µM unless noted
The panel holds about 83,000 compounds, 20% with a hit somewhere; the sample as a whole holds those more often. The source made the active and inactive calls. The calls were made as follows: active = growth percent below 10; inactive = the rest.
Classes used: 1 for active, -1 for inactive

Molecule	Class label
CCOC(=O)c1nnn(-c2ccccc2)c1C1=CN(C)CCC1	-1
C=C1C(=O)O[C@H]2[C@H]1CC/C(COC(=O)NCc1cc(OC)c(OC)c(OC)c1)=C\CC[C@@]1(C)O[C@@H]21	-1
CC(=O)C1=C(C)NC(NNC(N)=S)=NC1c1ccccc1 (centres undefined)	-1
O=C(CCN1CCCC1)Nc1ccc2c(NCCCc3ccccc3)c3ccccc3nc2c1	1
CCN(CC)C(=O)CC1=C(C)/C(=C/c2[nH]c(-c3ccc[nH]3)cc2OC)N=C1C	-1
O=C(Cc1ccccc1)NC(c1ccc(Cl)cc1)c1c(O)ccc2ccccc12 (centres undefined)	1
Nc1nc(N)c2c(n1)NC(c1sc(Cl)nc1Cl)CC(c1ccc3c(c1)OCO3)=N2 (centres undefined)	1
CC(=O)Nc1ccc(S(=O)(=O)NC(CCC(=O)Nc2ccc(Cl)cc2)C(=O)O)cc1 (centres undefined)	-1
CC(=O)Nc1ccc(S(=O)(=O)N/N=C\c2ccc(Cl)c(Cl)c2)cc1	-1
Oc1nc(NCc2ccccc2)sc1/C=C1\C=Nc2ncccc21	-1
COC(=O)c1cc([N+](=O)[O-])cc([N+](=O)[O-])c1Cl	1
CC1CCN(S(=O)(=O)c2ncsc2-c2ccccc2)CC1	-1
C=CCC(OC(C)=O)c1ccc(OC)c(OC)c1 (centres undefined)	-1
COC(=O)/C(CCC=C(C)C)=C1\[C@@H](OC(C)=O)C[C@@]2(C)[C@H]1C/C(=N/O)[C@H]1[C@@]3(C)CC/C(=N\O)[C@@H](C)[C@@H]3CC[C@@]12C	-1
CN(CCC#N)c1ccc(/C=C2\NC(=O)NC2=O)cc1	-1
CCC(C)NCc1ccccc1 (centres undefined)	-1
CN1CCC2(CC1)NC(=O)c1c(c3ccc(Cl)c(Cl)c3n1C)C2C#N (centres undefined)	1
O=C1N=c2cc3c(cc2=C/C1=C/c1sc(=S)n(CCc2ccc(O)cc2)c1O)OCCO3	-1
CCN(c1ccc(C(=O)N2CCN(c3ccccc3)CC2)cc1)S(C)(=O)=O	-1

====

Test system: MDA-MB-468 breast
Protocol details: NCI-60 one-dose screen, 48 h (100 = growth as untreated, 0 = no growth, -100 = all killed)
Assay conditions: 10 µM unless noted
This is part of a sample that, as a whole, favours compounds with a hit. Of some 83,000 tested, about 20% had one in any assay.
# label = true if growth < 90% else false

Compound	Class label
COc1cc(Cc2cc(-c3ccc(Cl)cc3)n[nH]c2=O)ccc1O	true
S=c1[nH]c(=S)c2c(-c3ccccc3)c(-c3ccccc3)oc2[nH]1	false
CN1CCN(CC(=O)N(C)c2ccc(N=C(c3ccccc3)c3c(O)[nH]c4ccc(C#N)cc34)cc2)CC1	false
CCn1c(-c2cc3c([nH]c4ccccc43)c(-c3cccc(O)c3)n2)n[nH]c1=S	true
CCc1nc2ccccc2[nH]1	false
CCOC(=O)C1=C(N)N(c2ccc(C)cc2)C2=C(C(=O)CC(C)(C)C2)C1c1ccccc1Br (centres undefined)	true
C=CCOC(=O)C1=C(C)N(CC)C(=O)N(CC)C1c1c(Cl)n(C)c2ccccc12 (centres undefined)	false
N#CCCN(NC(=O)OCc1ccccc1)C(=O)OCc1ccccc1	false
COc1ccc(Br)c2c1C(=O)CC2	false
CC[C@H](Nc1ncnc(N)c1C(N)=O)c1nc2cccc(NCc3ccc(C(=O)NO)cc3)c2c(=O)n1-c1ccccc1	true
N#Cc1ccc(/C=N/NC(=O)c2[nH]c3ccc(Br)cc3c2-c2ccccc2)s1	true
CCCCCCCCCCCCCCCCCN	false
CCOc1ccc(-n2cc(-c3ccc(N(C)C)cc3)[n+]3c2CCCCC3)cc1	true
O=C(Nc1ccc(Cl)cc1)c1cc(-c2ccc(F)cc2)c2sc(=O)[nH]c2n1	true
Nc1nonc1-c1nc2ccccc2n1CC(=O)Nc1ccc2c(c1)COC2=O	true
CCOc1cc(CNc2ccc(N3CCOCC3)c(C(=O)O)c2)ccc1OC	false
S=c1cc(S)c2cc(Br)ccc2[nH]1	false
CCOC(=O)c1c(Nc2ccccc2)nn2c(-c3ccccc3)ccnc12	false
O=C(NNc1nc2cc(F)ccc2n2c(CN3CC4CNCC4C3)ccc12)c1cnccn1 (centres undefined)	true
O=C(Nc1cccc(Cl)c1)Nc1cc(C(F)(F)F)ccc1Cl	true
Fc1ccc(COc2ccc(Nc3ncnc4sc5c(c34)CCCC5)cc2)cc1	false
COc1ccc(C(=O)Nc2nc(-c3ccc(Cl)cc3)cs2)cc1	false
